Attribution: patent US9265253B2

Please provide measured pest or weed control at 121.5 g/ha for the entries that follow.
# Tested on: Puccinia triticina; Synonym: Puccinia recondite f. Sp. Tritici
# ASSAY_PROCEDURE: Wheat Brown Rust (PUCCRT) disease control
# Assay type: in vivo
# SETUP_CONDITIONS: Puccinia triticina, topical, 72 h, Wheat Brown Rust; 3 Day Curative; rate 121.5 g/H (low volume application); read-out: Disease control PUCCRT 3 DC

IN: Request - read-out pest or weed control at 121.5 g/ha | tested on Puccinia triticina; Synonym: Puccinia recondite f. Sp. Tritici | compound CCO[C@@H]1[C@@H](Cc2ccccc2)CCC[C@H](NC(=O)c2nccc(OC)c2OC(=O)CCOC)C(=O)O[C@H]1C [Compound F197]
OUT: 80 to 100%

IN: # get_value(readout= pest or weed control at 121.5 g/ha, system= Puccinia triticina; Synonym: Puccinia recondite f. Sp. Tritici) for COCCC(=O)Oc1c(OC)ccnc1C(=O)N[C@H]1CCC[C@H](Cc2ccc(OC)cc2)[C@@H](OCC2CC2)[C@H](C)OC1=O [Compound F195]
OUT: 0 to 80%

IN: Identify the measured pest or weed control at 121.5 g/ha of CCCO[C@@H]1[C@@H](Cc2ccccc2)CCC[C@H](NC(=O)c2nccc(OC)c2OC(=O)CCOC)C(=O)O[C@H]1C [Compound F198] for Puccinia triticina; Synonym: Puccinia recondite f. Sp. Tritici.
OUT: 80 to 100%
